System: Fibroblast
Experiment: Multiplex assay against human fibroblast
Type: toxicity, cell-based
Conditions: 24 h, 1 µM, compound concentration 1 uM, replicate 1
Hi, to clarify the labels: Satisfied covers Population Membrane Permeable-Phenotype (%) from 10% upward, Not satisfied covers anything below 10%.

Before answering, review these 3 worked examples.
>>> print(df.to_string())
                                   compound  tested_system  discrete_label
0  C=CC(=O)Nc1ccc2[nH]c(=O)n(C3CCN(Cc4ccc(-c5nc6cc[nH]c(=O)c6cc5-c5ccccc5)cc4)CC3)c2c1     Fibroblast   Not satisfied
1  C=CC(=O)Nc1cccc(Oc2nc(Nc3ccc(N4CCN(C)CC4)cc3OC)ncc2Cl)c1     Fibroblast   Not satisfied
2  CCOC(=O)Nc1cc(-c2ccc(C)c(NS(C)(=O)=O)c2)nn2c(C)nnc12     Fibroblast       Satisfied

Would you say CC(C)c1noc(N2CCC(COc3ccc(-c4ccc(S(C)(=O)=O)cc4)nc3)CC2)n1 shows Population Membrane Permeable-Phenotype (%) at minimum 10%?
Satisfied

Would you say COc1cc2ncn(-c3cc(OCc4ccccc4C(F)(F)F)c(C(N)=O)s3)c2cc1OC [GW843682X] shows Population Membrane Permeable-Phenotype (%) at minimum 10%?
Satisfied

Would you say C[C@]12CC[C@@H]3c4ccc(O)cc4CC[C@H]3[C@@H]1CC[C@@H]2O shows Population Membrane Permeable-Phenotype (%) at minimum 10%?
Satisfied

Would you say CN1CCN(Cc2ccc(Nc3ncc(Cl)c(Nc4ccccc4S(=O)(=O)N(C)C)n3)cc2)CC1 shows Population Membrane Permeable-Phenotype (%) at minimum 10%?
Satisfied

====

System: U2OS
Assay: Multiplex assay against U2OS
Format: toxicity, cell-based
Settings: human, 24 h, 10 µM, compound concentration 10 uM, replicate 2
READOUT KIND: Total Cell Count

Field request: Total Cell Count | item: CCCSc1nc(N[C@@H]2C[C@H]2c2ccc(F)c(F)c2)c2nnn([C@@H]3C[C@H](OCCO)[C@@H](O)[C@H]3O)c2n1
80

====

Tested on: U2OS
Assay: Multiplex assay against U2OS
Type: toxicity, cell-based
Conditions: human, 12 h, 1 µM, compound concentration 1 uM, replicate 1
Hi, to clarify the labels: rule met covers Population Apoptotic (%) from 50% upward, rule not met covers anything below 50%.

Before answering, review these 2 worked examples.
                                   molecule  tested_system  discrete_label
0  CNC(=O)Nc1ccc2c(c1)[C@@]1(CC2)OC(=O)N(CC(=O)N(Cc2ccc(F)cc2)[C@@H](C)C(F)(F)F)C1=O           U2OS    rule not met
1  C=CC(=O)Nc1cccc(Sc2nc(Nc3ccc(N4CCN(C)CC4)cc3)ncc2Cl)c1           U2OS        rule met

Would you say Cc1ccc(C)c(Oc2ccncc2C(=O)N2CCN(C3CC3)c3ccccc32)c1 shows Population Apoptotic (%) at minimum 50%?
rule met

Would you say COc1ccc(-c2ccc3ncc4c(c3c2)n(-c2ccc(N3CCNCC3)c(C(F)(F)F)c2)c(=O)n4C)cn1.O=C(O)/C=C\C(=O)O shows Population Apoptotic (%) at minimum 50%?
rule met

Would you say CC(C)CC(=O)Nc1[nH]nc2c1CN(C(=O)C1CCN(C)CC1)C2(C)C shows Population Apoptotic (%) at minimum 50%?
rule not met
